Test System: Type-2 angiotensin II receptor (Rattus norvegicus)
Sequence (P35351 whole entry): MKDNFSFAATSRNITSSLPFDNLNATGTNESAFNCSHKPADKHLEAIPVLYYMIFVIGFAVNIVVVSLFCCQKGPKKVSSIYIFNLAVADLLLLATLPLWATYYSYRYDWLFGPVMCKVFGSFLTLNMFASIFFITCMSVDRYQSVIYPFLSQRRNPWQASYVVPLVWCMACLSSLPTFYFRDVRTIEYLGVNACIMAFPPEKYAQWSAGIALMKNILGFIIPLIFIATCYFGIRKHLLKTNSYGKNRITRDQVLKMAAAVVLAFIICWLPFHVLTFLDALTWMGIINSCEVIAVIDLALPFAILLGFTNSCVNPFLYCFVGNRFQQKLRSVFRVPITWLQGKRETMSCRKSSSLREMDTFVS
Protocol Details: Displacement of [125I]- Ang II from angiotensin II AT2 receptor in rat adrenal cortical microsomes
Parameters: species or system Microsome

| Smiles | IC50 [nM] |
| --- | --- |
| CCCc1nc(CC)c(C=O)n1Cc1ccc(-c2ccccc2-c2nn[nH]n2)cc1Br | 700 |
| CCCCOC(=O)NS(=O)(=O)c1ccccc1-c1ccc(Cn2c(CCC)nc(CC)c2C(=O)OC)cc1 | 40 |
| CCCc1nc(CC)c(C=O)n1Cc1ccc(-c2ccccc2-c2nn[nH]n2)cc1F | 3000 |
| CCCCOC(=O)NS(=O)(=O)c1ccccc1-c1ccc(Cn2c(CCC)nc(CC)c2C(=O)OC)c([N+](=O)[O-])c1 | 20 |

* * *

Test System: Type-2 angiotensin II receptor (Rattus norvegicus, UniProt P35351)
Protocol Details: Displacement of [125I]- Ang II from angiotensin II AT2 receptor in rat adrenal cortical microsomes
Set-up: species or system Microsome
Outcome Measure: IC50 (nM)

| Smiles | Reported Value |
| --- | --- |
| CCCCOC(=O)NS(=O)(=O)c1ccccc1-c1ccc(Cn2c(CCC)nc(CC)c2C=O)c(C)c1 | 9 |
| CCCc1nc(CC)c(C=O)n1Cc1ccc(-c2ccccc2-c2nn[nH]n2)cc1Cl | 500 |
| CCCCOC(=O)NS(=O)(=O)c1ccccc1-c1ccc(Cn2c(CCC)nc(CC)c2C=O)cc1 | 10 |
| CCCCOC(=O)NS(=O)(=O)c1ccccc1-c1ccc(Cn2c(CCC)nc(CC)c2C(C)=O)c(Cl)c1 | 12 |
| CCCc1nc(CC)c(C=O)n1Cc1ccc(-c2ccccc2S(=O)(=O)NC(=O)c2ccccc2)cc1 | 500 |
| CCCc1nc(CC)c(C(=O)OC)n1Cc1ccc(-c2ccccc2S(=O)(=O)NC(=O)OCCC(C)C)cc1F | 1 |
| CCCCOC(=O)NS(=O)(=O)c1ccccc1-c1ccc(Cn2c(CCC)nc(CC)c2C(C)=O)cc1 | 80 |
| CCCCOC(=O)NS(=O)(=O)c1ccccc1-c1ccc(Cn2c(CCC)nc(CC)c2C(C)=O)c(F)c1 | 3 |
| CCCCOC(=O)NS(=O)(=O)c1ccccc1-c1ccc(Cn2c(CCC)nc(CC)c2C(=O)OC)c(F)c1 | 4 |

* * *

Test System: Angiotensin II receptor (AT-1) type-1 (Rattus norvegicus, UniProt P29089+P25095)
Protocol Details: Displacement of [125I]- Ang II from angiotensin II AT1 receptor in rat adrenal cortical microsomes
Set-up: species or system Microsome
Listed molecules paired with reported IC50

| Smiles | Unit Text | IC50 |
| --- | --- | --- |
| CCCNC(=O)NS(=O)(=O)c1ccccc1-c1ccc(Cn2c(CCC)nc(SC)c2C(=O)O)cc1 | nM | 0.3 |
| CCCCOC(=O)NS(=O)(=O)c1ccccc1-c1ccc(Cn2c(CCC)nc(CC)c2C=O)cc1 | nM | 2 |
| CCCCOC(=O)NS(=O)(=O)c1ccccc1-c1ccc(Cn2c(CCC)nc(CC)c2C(C)=O)c(C)c1 | nM | 2 |
| CCCc1nc(CC)c(C=O)n1Cc1ccc(-c2ccccc2-c2nn[nH]n2)cc1 | nM | 2 |
| CCCc1nc(CC)c(C=O)n1Cc1ccc(-c2ccccc2-c2nn[nH]n2)cc1Br | nM | 20 |
| CCCc1nc(CC)c(C=O)n1Cc1ccc(-c2ccccc2-c2nn[nH]n2)cc1F | nM | 7 |
| CCCCOC(=O)NS(=O)(=O)c1ccccc1-c1ccc(Cn2c(CCC)nc(CC)c2C(=O)OC)c(Br)c1 | nM | 2 |
| CCCCOC(=O)NS(=O)(=O)c1ccccc1-c1ccc(Cn2c(CCC)nc(CC)c2C(C)=O)c(Cl)c1 | nM | 6 |
| CCCCOC(=O)NS(=O)(=O)c1ccccc1-c1ccc(Cn2c(CCC)nc(CC)c2C(=O)OC)c(C)c1 | nM | 3 |
| CCCCOC(=O)NS(=O)(=O)c1ccccc1-c1ccc(Cn2c(CCC)nc(CC)c2C(C)=O)cc1 | nM | 2 |
| CCCc1nc(CC)c(C=O)n1Cc1ccc(-c2ccccc2-c2nn[nH]n2)cc1Cl | nM | 10 |
| CCCc1nc(C(F)(F)C(F)(F)F)c(C(=O)O)n1Cc1ccc(-c2ccccc2-c2nn[nH]n2)cc1 | nM | 3 |
| CCCCOC(=O)NS(=O)(=O)c1ccccc1-c1ccc(Cn2c(CCC)nc(CC)c2C(=O)OC)c([N+](=O)[O-])c1 | nM | 7 |
| CCCCOC(=O)NS(=O)(=O)c1ccccc1-c1ccc(Cn2c(CCC)nc(CC)c2C(=O)OC)c(F)c1 | nM | 0.6 |
| CCCc1nc(CC)c(C=O)n1Cc1ccc(-c2ccccc2S(=O)(=O)NC(=O)c2ccccc2)cc1 | nM | 2.4 |
| CCCCOC(=O)NS(=O)(=O)c1ccccc1-c1ccc(Cn2c(CCC)nc(CC)c2C(=O)OC)cc1 | nM | 2 |
| CCCc1nc(CC)c(C=O)n1Cc1ccc(-c2ccccc2-c2nn[nH]n2)cc1C | nM | 40 |
| CCCCOC(=O)NS(=O)(=O)c1ccccc1-c1ccc(Cn2c(CCC)nc(CC)c2C=O)c(F)c1 | nM | 0.7 |
| CCCCOC(=O)NS(=O)(=O)c1ccccc1-c1ccc(Cn2c(CCC)nc(CC)c2C=O)c(C)c1 | nM | 3 |

* * *

Test System: Type-2 angiotensin II receptor (Rattus norvegicus, UniProt P35351)
Protocol Details: Compound was tested for the inhibition of angiotensin II AT2 receptor by displacement of [125I]- Ang II to rat adrenal cortical microsomes
pIC50: −log10 of the molar value.

| Smiles | pIC50 |
| --- | --- |
| CCCc1nc(C(F)(F)C(F)(F)F)c(C(=O)O)n1Cc1ccc(-c2ccccc2-c2nn[nH]n2)cc1Br | 7.10 |

* * *

Test System: Type-2 angiotensin II receptor (Rattus norvegicus)
Protocol Details: Displacement of [125I]- Ang II from angiotensin II AT2 receptor in rat adrenal cortical microsomes
Parameters: species or system Microsome
pIC50: −log10 of the molar value.
Listed compounds paired with reported pIC50

| Smiles | Test System | Readout Relation | pIC50 |
| --- | --- | --- | --- |
| CCCCOC(=O)NS(=O)(=O)c1ccccc1-c1ccc(Cn2c(CCC)nc(CC)c2C(=O)OC)c(Cl)c1 | Type-2 angiotensin II receptor (Rattus norvegicus) | = | 8.15 |
| CCCCOC(=O)NS(=O)(=O)c1ccccc1-c1ccc(Cn2c(CCC)nc(CC)c2C(C)=O)c(C)c1 | Type-2 angiotensin II receptor (Rattus norvegicus) | = | 7.70 |
| CCCNC(=O)NS(=O)(=O)c1ccccc1-c1ccc(Cn2c(CCC)nc(SC)c2C(=O)O)cc1 | Type-2 angiotensin II receptor (Rattus norvegicus) | = | 6.11 |
| CCCCOC(=O)NS(=O)(=O)c1ccccc1-c1ccc(Cn2c(CCC)nc(CC)c2C(=O)OC)c(Br)c1 | Type-2 angiotensin II receptor (Rattus norvegicus) | = | 7.70 |
| CCCc1nc(C(F)(F)C(F)(F)F)c(C(=O)O)n1Cc1ccc(-c2ccccc2-c2nn[nH]n2)cc1 | Type-2 angiotensin II receptor (Rattus norvegicus) | < | 5.00 |
| CCCc1nc(CC)c(C=O)n1Cc1ccc(-c2ccccc2-c2nn[nH]n2)cc1 | Type-2 angiotensin II receptor (Rattus norvegicus) | < | 5.00 |
| CCCc1nc(CC)c(C=O)n1Cc1ccc(-c2ccccc2-c2nn[nH]n2)cc1C | Type-2 angiotensin II receptor (Rattus norvegicus) | = | 6.00 |
| CCCCOC(=O)NS(=O)(=O)c1ccccc1-c1ccc(Cn2c(CCC)nc(CC)c2C=O)c(F)c1 | Type-2 angiotensin II receptor (Rattus norvegicus) | = | 8.70 |
| CCCCOC(=O)NS(=O)(=O)c1ccccc1-c1ccc(Cn2c(CCC)nc(CC)c2C(=O)OC)c(C)c1 | Type-2 angiotensin II receptor (Rattus norvegicus) | = | 8.00 |
